- Assayed system: menin/MLL (terbium chelate-labeled menin, FITC-MBM1 peptide) (Homo sapiens, UniProt O00255, T541A)
- Construct: Menin (a.a 1-610-6xhis tag)
- Sequence (O00255 with tags, fused parts or gaps T541A): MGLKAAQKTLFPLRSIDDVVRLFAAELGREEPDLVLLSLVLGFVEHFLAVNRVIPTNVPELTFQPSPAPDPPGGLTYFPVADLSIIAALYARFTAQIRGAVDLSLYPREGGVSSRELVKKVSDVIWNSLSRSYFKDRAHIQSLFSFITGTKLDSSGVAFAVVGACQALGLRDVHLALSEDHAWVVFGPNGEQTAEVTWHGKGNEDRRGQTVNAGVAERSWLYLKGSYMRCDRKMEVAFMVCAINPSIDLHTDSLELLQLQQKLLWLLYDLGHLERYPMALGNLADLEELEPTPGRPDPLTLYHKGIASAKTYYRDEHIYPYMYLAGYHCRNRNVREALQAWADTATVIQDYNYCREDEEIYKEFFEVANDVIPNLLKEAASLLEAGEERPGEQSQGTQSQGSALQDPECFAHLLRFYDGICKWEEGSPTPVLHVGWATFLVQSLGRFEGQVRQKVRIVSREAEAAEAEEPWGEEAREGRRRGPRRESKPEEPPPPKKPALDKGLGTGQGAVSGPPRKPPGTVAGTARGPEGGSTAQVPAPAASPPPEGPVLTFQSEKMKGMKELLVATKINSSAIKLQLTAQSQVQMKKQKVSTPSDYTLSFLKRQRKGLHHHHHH
- Method description: Menin/MLL homogenous time-resolved fluorescence (HTRF) assay
- Stated conditions: 30 min incubation
Readout: IC50 (nM)

Compound	IC50 [nM]
CC(C)[C@H]([C@H]1C[C@@H](N2CCN(C(=O)N(C)C)CC2)C1)N1CC2(CCN(c3ncnnc3Oc3ccc(F)cc3-c3cncnc3C3CC3)C2)C1 (single isomer, unassigned)	0.2
CNC(=O)Nc1cc(N[C@H]2C[C@@H](C(C(C)C)N3CC4(CCN(c5ncnnc5Oc5ccc(F)cc5-c5cncnc5C5CC5)C4)C3)C2)ccn1 (single isomer, unassigned)	0.13
CC(C)[C@H]([C@H]1C[C@@H](N2CCC3(C2)CS(=O)(=O)C3)C1)N1CC2(CCN(c3ncnnc3Oc3ccc(F)cc3-c3cncnc3C3CC3)C2)C1 (single isomer, unassigned)	0.1

(a) CC(C)C([C@H]1C[C@H](N2C[C@H]3COC[C@H]3C2)C1)N1CC2(CCN(c3ncnnc3Oc3ccc(F)cc3-c3cnccc3C3CC3)C2)C1 (some centres unmarked)
(b) CC1CN([C@H]2C[C@@H]([C@@H](C(C)C)N3CC4(CCN(c5ncnnc5Oc5ccc(F)cc5-c5cncnc5C5CC5)C4)C3)C2)CCC1O (single isomer, unassigned)
Challenge: Which of the two gives a bigger number for IC50: a or b ? Please respond with the label that marks your chosen entry.
Response given: b
(b: 0.2 nM, a: 0.1 nM)

----------
- Tested on: KO-52 cells
- Method description: Proliferation assay, spheroid-like growth, KO-52 (MLL wildtype control cell line)
- Format: cell-based, human
- Stated conditions: Homo sapiens, 192 h, KO-52 control cells, 8 days, confluence as measure of spheroid size; read-out: spheroid assay_OneTime KO-52 IC50
Readout: pIC50
// pIC50 is dimensionless: -log10 of concentration (M)

Challenge: Form entry - test system: KO-52 cells; read-out: pIC50; compound: CC(C)[C@H]([C@H]1C[C@@H](N2CCC(C)(C(=O)N(C)C)CC2)C1)N1CC2(CCN(c3ncnnc3Oc3ccc(F)cc3-c3cncnc3C3CC3)C2)C1 (single isomer, unassigned)
Response given: 5.20

Challenge: Can you handle CC(=O)N1CCN([C@H]2C[C@@H]([C@@H](C(C)C)N3CC4(CCN(c5ncnnc5Oc5ccc(F)cc5-c5cncnc5C5CC5)C4)C3)C2)CC1 (single isomer, unassigned) next?
Response given: 5.29

----------
- Tested on: MOLM14 cells
- Method description: Proliferation assay, spheroid-like growth, MOLM14 (MLL-AF9 rearranged)
- Assay type: cell-based, human
- Stated conditions: Homo sapiens, MOLM-14, 192 h, 8 days, confluence as measure of spheroid size, read-out: spheroid assay_OneTime MOLM14 IC50
pIC50: −log10 of the molar value.
Readout: pIC50

(I) CC(C)[C@H]([C@H]1C[C@@H](Nc2ncnc3[nH]ncc23)C1)N1CC2(CCN(c3ncnnc3Oc3ccc(F)cc3-c3cncnc3C3CC3)C2)C1 (single isomer, unassigned)
(II) CO[C@H]1[C@@H]2CN([C@H]3C[C@@H]([C@H](C(C)C)N4CC5(CCN(c6ncnnc6Oc6ccc(F)cc6-c6nnc(C)cc6C6CC6)C5)C4)C3)C[C@@H]21
Challenge: Please indicate which item has the smaller measured pIC50: I versus II Please respond with the label that marks your chosen entry.
Response given: I
